# system.under.test: T1, human SLC34A2 (human, UniProt O95436 1-690)
# T1 construct: whole, on cells; also called human solute carrier 34 A2; NaPi2b
# T1 sequence (looked up): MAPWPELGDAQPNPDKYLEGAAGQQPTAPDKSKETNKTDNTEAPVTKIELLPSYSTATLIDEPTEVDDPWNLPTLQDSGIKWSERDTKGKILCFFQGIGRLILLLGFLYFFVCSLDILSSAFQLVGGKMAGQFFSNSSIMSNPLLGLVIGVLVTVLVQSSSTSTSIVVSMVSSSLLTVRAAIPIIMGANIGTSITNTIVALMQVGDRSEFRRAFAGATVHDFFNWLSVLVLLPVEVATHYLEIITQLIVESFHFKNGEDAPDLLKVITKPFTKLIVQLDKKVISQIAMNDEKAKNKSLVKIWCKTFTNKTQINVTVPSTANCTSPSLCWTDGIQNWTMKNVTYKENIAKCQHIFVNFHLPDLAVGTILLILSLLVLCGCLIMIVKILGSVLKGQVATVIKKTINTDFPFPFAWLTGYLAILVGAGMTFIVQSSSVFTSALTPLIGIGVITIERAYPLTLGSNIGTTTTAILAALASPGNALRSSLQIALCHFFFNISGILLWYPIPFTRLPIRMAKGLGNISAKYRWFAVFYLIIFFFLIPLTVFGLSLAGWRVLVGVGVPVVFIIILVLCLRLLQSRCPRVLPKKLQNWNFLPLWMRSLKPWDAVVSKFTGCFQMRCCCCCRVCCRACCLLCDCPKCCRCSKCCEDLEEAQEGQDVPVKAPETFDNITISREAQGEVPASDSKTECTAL
# method.description: FACS, OVCAR3 cells
# Procedure: In this example, cell based binding of chimeric antibodies (hIgG1) prepared from the murine antibodies on human SLC34A2 expressing cells were assessed using flow cytometry. Briefly, OVCAR3 cells or HEK293 cells expressing human SLC34A2 were incubated with chimeric antibodies (from 200 nM, 4 folds dilution, 8 points). […] After that the cells were washed twice and analyzed by flow cytometry.
property: EC50 (nM)
Write the number in nM without appending the unit.

Field: example entries. Status: answers known.
According to the records, this binder xi20H2F1 hIgG1 (antibody, V domains shown, chimeric, hIgG1) VH: EVKLVESGGNLVKPGGSLKLSCAASGFTFSSYAMSWVRQTPEKRLEWVASISNGGTTYYPDSVKGRFTISRDVARNILYLQMTSLRSEDTAMYYCARTHYRDFVYWGQGTLVTVSA VL: EIVLTQAAFSNPVTLGTSASISCRSSKSLLHSNGITYLYWYLQKPGQSPQLLIYQMSNLASGVPDRFSCSGSGTDFTLRISRVEAEDVGVYYCAQNLEFPWTFGGGTKLEIK displays EC50 of 2.73

xi62G10E4G8 hIgG1 (antibody, V domains shown, chimeric, hIgG1) VH: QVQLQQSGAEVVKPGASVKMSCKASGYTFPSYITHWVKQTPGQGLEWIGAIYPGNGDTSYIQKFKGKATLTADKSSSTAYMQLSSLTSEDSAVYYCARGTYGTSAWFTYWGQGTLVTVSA VL: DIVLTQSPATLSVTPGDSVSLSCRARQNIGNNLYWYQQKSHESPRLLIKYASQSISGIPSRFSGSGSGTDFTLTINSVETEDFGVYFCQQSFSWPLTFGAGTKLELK has a reported EC50 of 2.55

The binder xi69B11D8 hIgG1 (antibody, V domains shown, chimeric, hIgG1) VH: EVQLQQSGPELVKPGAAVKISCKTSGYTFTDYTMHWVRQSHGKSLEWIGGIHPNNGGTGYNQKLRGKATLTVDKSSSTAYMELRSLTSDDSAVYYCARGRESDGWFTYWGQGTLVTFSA VL: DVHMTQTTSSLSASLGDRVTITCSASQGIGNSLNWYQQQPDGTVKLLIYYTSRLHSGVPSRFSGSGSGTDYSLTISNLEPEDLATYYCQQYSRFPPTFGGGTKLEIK showed EC50 equal to 2.12

Further cases:
Data point: xi91C9F1 hIgG1 (antibody, V domains shown, chimeric, hIgG1) VH: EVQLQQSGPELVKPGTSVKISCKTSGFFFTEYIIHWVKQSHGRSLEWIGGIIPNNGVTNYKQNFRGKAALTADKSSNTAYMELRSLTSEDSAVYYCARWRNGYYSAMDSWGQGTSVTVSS VL: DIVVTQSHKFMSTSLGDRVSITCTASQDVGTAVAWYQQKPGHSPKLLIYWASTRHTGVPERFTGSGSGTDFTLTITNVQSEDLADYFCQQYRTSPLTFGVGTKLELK ; EC50 = 1.64

The binder xi25B11B9 hIgG1 (antibody, V domains shown, chimeric, hIgG1) VH: DVKLVESGGGLVRLGGSLKLSCAASGFTFSSHYMSWVRQTPKKRLELVATINSSGGNTYYPDTVKGRFTISRDNARNTLFLQMTSLKSEDTALYYCARQPINTVAYFDYWGQGTTLTVSS VL: DIVMTQSHEFMSTSVGARVSITCKASQDLTTAVAWYQQKPGQSPKLLIYWASTRHIGVPDRFTGSGSGADYTLTISSVQAEDLALYYCQQYHSTPLTFGAGTKLELK showed EC50 equal to 9.06
